- System: T1, Human CD228 protein (human, UniProt P08582 20-708, limits assumed)
- T1 construct: Recombinant protein made in CHO cells, purified over a Ni column; The printed entry begins with the leader (MRGPSG...) and ends with ten His; also called hCD228; CD228-His protein
- T1 sequence: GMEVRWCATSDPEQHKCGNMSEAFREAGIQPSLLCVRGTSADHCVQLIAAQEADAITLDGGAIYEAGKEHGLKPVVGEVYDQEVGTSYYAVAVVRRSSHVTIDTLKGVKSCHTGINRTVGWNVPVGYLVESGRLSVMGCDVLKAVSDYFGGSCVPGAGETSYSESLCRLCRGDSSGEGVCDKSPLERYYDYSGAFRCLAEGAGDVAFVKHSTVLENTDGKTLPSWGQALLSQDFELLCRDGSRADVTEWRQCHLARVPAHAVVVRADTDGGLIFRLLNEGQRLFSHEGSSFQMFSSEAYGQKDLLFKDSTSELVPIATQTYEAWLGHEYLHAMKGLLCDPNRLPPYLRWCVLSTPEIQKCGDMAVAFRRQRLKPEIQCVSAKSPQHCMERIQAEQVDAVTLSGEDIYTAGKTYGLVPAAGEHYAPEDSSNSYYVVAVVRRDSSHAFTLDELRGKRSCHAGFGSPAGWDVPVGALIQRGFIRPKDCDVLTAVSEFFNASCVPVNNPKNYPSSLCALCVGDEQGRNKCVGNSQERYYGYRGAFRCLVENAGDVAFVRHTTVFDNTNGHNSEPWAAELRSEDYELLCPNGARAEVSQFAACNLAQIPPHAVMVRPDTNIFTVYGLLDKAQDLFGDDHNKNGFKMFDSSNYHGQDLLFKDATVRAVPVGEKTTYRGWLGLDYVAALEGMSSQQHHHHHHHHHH
- Test method notes: Octet competition on His-chip CD228; competitor: CA13
# label = true (1) if Octet response value >= 0.01 else false (0)

# bool: Octet response value of CA67 (antibody, human IgG1, kappa, V domains shown, Intact IgG1) VH: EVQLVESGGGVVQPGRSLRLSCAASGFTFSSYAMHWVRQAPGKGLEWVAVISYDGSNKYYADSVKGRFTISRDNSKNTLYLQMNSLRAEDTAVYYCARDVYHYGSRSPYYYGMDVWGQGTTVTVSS VL: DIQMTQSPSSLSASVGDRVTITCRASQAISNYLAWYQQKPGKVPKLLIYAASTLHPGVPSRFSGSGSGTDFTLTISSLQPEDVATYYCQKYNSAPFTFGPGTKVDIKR >= 0.01
false (0)

# bool: Octet response value of BA352 (antibody, human IgG1, kappa, V domains shown, Intact IgG1) VH: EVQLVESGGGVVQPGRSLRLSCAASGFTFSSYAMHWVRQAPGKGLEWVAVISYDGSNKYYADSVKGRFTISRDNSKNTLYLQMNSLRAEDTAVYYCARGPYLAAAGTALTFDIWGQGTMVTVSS VL: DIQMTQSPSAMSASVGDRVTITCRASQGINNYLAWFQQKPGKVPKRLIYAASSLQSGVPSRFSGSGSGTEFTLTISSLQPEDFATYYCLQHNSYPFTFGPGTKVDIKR >= 0.01
true (1)

# bool: Octet response value of reference antibody hL49 (antibody, human IgG1, kappa, V domains shown, also called H149; hL49 analogy) VH: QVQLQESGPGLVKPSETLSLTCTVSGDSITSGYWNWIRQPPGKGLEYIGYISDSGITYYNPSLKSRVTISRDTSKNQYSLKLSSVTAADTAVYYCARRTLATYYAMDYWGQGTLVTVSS VL: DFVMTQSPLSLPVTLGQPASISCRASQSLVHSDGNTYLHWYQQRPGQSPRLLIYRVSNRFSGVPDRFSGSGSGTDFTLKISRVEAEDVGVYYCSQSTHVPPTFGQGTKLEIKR >= 0.01
true (1)

# bool: Octet response value of CA518 (antibody, human IgG1, kappa, V domains shown, Intact IgG1) VH: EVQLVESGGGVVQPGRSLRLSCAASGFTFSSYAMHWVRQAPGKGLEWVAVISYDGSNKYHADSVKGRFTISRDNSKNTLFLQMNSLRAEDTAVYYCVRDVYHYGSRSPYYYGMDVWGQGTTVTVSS VL: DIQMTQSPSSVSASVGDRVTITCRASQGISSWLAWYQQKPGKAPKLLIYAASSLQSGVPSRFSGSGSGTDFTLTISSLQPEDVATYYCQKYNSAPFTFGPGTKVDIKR >= 0.01
false (0)

# bool: Octet response value of CA185 (antibody, human IgG1, kappa, V domains shown, Intact IgG1) VH: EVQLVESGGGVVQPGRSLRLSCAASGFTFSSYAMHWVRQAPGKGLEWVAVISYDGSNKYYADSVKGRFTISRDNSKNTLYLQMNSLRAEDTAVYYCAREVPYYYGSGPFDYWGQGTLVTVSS VL: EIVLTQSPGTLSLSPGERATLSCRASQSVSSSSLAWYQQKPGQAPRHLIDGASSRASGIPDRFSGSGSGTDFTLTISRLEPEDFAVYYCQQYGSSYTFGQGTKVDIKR >= 0.01
false (0)

# bool: Octet response value of CA149 (antibody, human IgG1, kappa, V domains shown, Intact IgG1; also called CA149 antibody) VH: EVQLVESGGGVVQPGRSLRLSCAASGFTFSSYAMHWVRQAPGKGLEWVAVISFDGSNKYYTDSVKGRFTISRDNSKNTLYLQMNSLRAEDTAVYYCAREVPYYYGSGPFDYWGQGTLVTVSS VL: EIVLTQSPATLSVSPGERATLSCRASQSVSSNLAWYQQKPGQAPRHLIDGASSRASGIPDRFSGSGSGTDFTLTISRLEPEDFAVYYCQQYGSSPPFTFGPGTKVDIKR >= 0.01
true (1)
